Here the recorded IC50 is given for each entry.
- assay remarks: Cytotoxicity against human HuCCa1 cells after 48 hrs by MTT assay
- Format: functional, cell-based
- experimental conditions: HuCC-A1, 48 h
# unit: µM | format: bare number

Observe how each entry below is paired with its result.
- smiles text: "COc1cc2c(cc1OC)CN(S(=O)(=O)c1ccc(-n3cc(COc4ccc(C=O)cc4OC)nn3)cc1)CC2"
  assay endpoint: "IC50"
  value reported: 40
- smiles text: "COc1cc2c(cc1OC)CN(S(=O)(=O)c1ccc(-n3cc(COc4ccc(C=O)cc4)nn3)cc1)CC2"
  assay endpoint: "IC50"
  value reported: 31.1

GET /value?item= COc1cc2c(cc1OC)CN(S(=O)(=O)c1ccc(-n3cc(CO)nn3)cc1)CC2 &field=IC50 returns 72

----------
- Tested on: HepG2
- assay remarks: Cytotoxicity against human HepG2 cells after 48 hrs by MTT assay
- Format: functional, cell-based
- experimental conditions: HepG2, 48 h
Threshold check on IC50: strictly below 5 µM is Y; on or above 5 µM is N.

Please review the following examples before continuing.
- smiles text: "COc1cc2c(cc1OC)CN(S(=O)(=O)c1ccc(-n3cc(COc4ccccc4C)nn3)cc1)CC2"
  group label: "Y"
- smiles text: "O=S(=O)(c1ccc(-n2cc(COc3ccccc3)nn2)cc1)N1CCc2ccccc2C1"
  group label: "N"
- smiles text: "COc1cc2c(cc1OC)CN(S(=O)(=O)c1ccc(-n3cc(COc4ccc(C=O)cc4)nn3)cc1)CC2"
  group label: "N"
- smiles text: "CC(=O)c1ccccc1OCc1cn(-c2ccc(S(=O)(=O)N3CCc4ccccc4C3)cc2)nn1"
  group label: "N"
- smiles text: "COc1cc2c(cc1OC)CN(S(=O)(=O)c1ccc(-n3cc(COc4cc(C=O)ccc4OC)nn3)cc1)CC2"
  group label: "N"
- smiles text: "O=S(=O)(c1ccc(-n2cc(COc3ccc4ccccc4c3)nn2)cc1)N1CCc2ccccc2C1"
  group label: "N"
- smiles text: "COc1cc2c(cc1OC)CN(S(=O)(=O)c1ccc(-n3cc(COc4ccccc4)nn3)cc1)CC2"
  group label: "Y"
- smiles text: "COc1cc2c(cc1OC)CN(S(=O)(=O)c1ccc(-n3cc(COc4ccc5ccccc5c4)nn3)cc1)CC2"
  group label: "Y"

IN: IC50 under 5 µM? Item: COC(=O)c1ccccc1OCc1cn(-c2ccc(S(=O)(=O)N3CCc4cc(OC)c(OC)cc4C3)cc2)nn1
OUT: Y

IN: In the record for COc1cc2c(cc1OC)CN(S(=O)(=O)c1ccc(-n3cc(COc4ccc(C)cc4)nn3)cc1)CC2 , is IC50 less than 5 µM?
OUT: Y

IN: is_below(IC50, 5 µM) for COC(=O)c1ccccc1OCc1cn(-c2ccc(S(=O)(=O)N3CCc4ccccc4C3)cc2)nn1 ?
OUT: N

IN: # strict comparison: is reported IC50 < 5 µM? input = O=Cc1ccc(OCc2cn(-c3ccc(S(=O)(=O)N4CCc5ccccc5C4)cc3)nn2)cc1
OUT: N

IN: A record lists COc1cc2c(cc1OC)CN(S(=O)(=O)c1ccc(-n3cc(CO)nn3)cc1)CC2 . Is its IC50 below 5 µM?
OUT: N

----------
Listing of recorded IC50 by entry.
- Test system: A549
- assay remarks: Cytotoxicity against human A549 cells after 48 hrs by MTT assay
- Assay type: functional, cell-based
- experimental conditions: A549, 48 h

Worked cases, answers included:
- smiles text: "COc1cc2c(cc1OC)CN(S(=O)(=O)c1ccc(-n3cc(COc4ccc([N+](=O)[O-])cc4)nn3)cc1)CC2"
  IC50: "> 50 µg/mL"
- smiles text: "Cc1ccccc1OCc1cn(-c2ccc(S(=O)(=O)N3CCc4ccccc4C3)cc2)nn1"
  IC50: "66.3 µM"
- smiles text: "O=S(=O)(c1ccc(-n2cc(COc3ccc4ccccc4c3)nn2)cc1)N1CCc2ccccc2C1"
  IC50: "> 50 µg/mL"
- smiles text: "O=Cc1ccc(OCc2cn(-c3ccc(S(=O)(=O)N4CCc5ccccc5C4)cc3)nn2)cc1"
  IC50: "59.1 µM"
- smiles text: "COc1cc2c(cc1OC)CN(S(=O)(=O)c1ccc(-n3cc(COc4cc(C=O)ccc4OC)nn3)cc1)CC2"
  IC50: "31.9 µM"

The recorded IC50 for COc1cc2c(cc1OC)CN(S(=O)(=O)c1ccc(-n3cc(COc4ccc5ccccc5c4)nn3)cc1)CC2 is > 50 µg/mL

response.value for COc1cc2c(cc1OC)CN(S(=O)(=O)c1ccc(-n3cc(COc4ccc(C=O)cc4OC)nn3)cc1)CC2 (field: IC50) = > 50 µg/mL

----------
Catalogue of molecules with associated IC50
- assay remarks: Cytotoxicity against human HuCCa1 cells after 48 hrs by MTT assay
- Assay type: functional, cell-based
- experimental conditions: HuCC-A1, 48 h

Query COc1cc2c(cc1OC)CN(S(=O)(=O)c1ccc(-n3cc(COc4ccccc4C)nn3)cc1)CC2 yields IC50 of 39.7 µM

Given item COc1cc2c(cc1OC)CN(S(=O)(=O)c1ccc(-n3cc(COc4ccc5ccccc5c4)nn3)cc1)CC2 , the value recorded as its IC50 is > 50 µg/mL

Entry COC(=O)c1ccccc1OCc1cn(-c2ccc(S(=O)(=O)N3CCc4cc(OC)c(OC)cc4C3)cc2)nn1 , IC50 reported as 4.79 µM

According to the records, this molecule COc1cc2c(cc1OC)CN(S(=O)(=O)c1ccc(-n3cc(COc4cc(C=O)ccc4OC)nn3)cc1)CC2 displays IC50 of 76.2 µM

Given item COc1cc2c(cc1OC)CN(S(=O)(=O)c1ccc(-n3cc(COc4ccc(C)cc4)nn3)cc1)CC2 , the value recorded as its IC50 is > 50 µg/mL

What the record says about O=S(=O)(c1ccc(-n2cc(COc3ccc4ccccc4c3)nn2)cc1)N1CCc2ccccc2C1 : IC50 is > 50 µg/mL

// O=Cc1ccc(OCc2cn(-c3ccc(S(=O)(=O)N4CCc5ccccc5C4)cc3)nn2)cc1 : IC50 value = > 50 µg/mL
